B1: LINE1-mini (parent)
chain: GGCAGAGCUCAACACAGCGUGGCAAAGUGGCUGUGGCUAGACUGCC

variants of: B1; test: self-cleavage, relative activity (ratio to wild type); higher = more cleavage; in vitro, sequencing; the parent is a self-cleaving ribozyme
assay.metric: self-cleavage
Answer with a number only.

variant.code	self-cleavage
C3U G40C	0.07

Complete the entry with self-cleavage for A24U U32A
0.07

Specify self-cleavage for G30A A41C and stop.
0.07
